# target_or_system: T1, recombinant human Tim-3-Fc (R&D Systems, 2365-TM) (human, UniProt Q8TDQ0 22-202, biotinylated in the Galectin-9 competition ELISA (sites not given))
# T1 construct: Bought protein; also called huTim-3-Fc; biotinylated Tim-3-Fc; not shown: Fc of the bought fusion protein
# procedure_summary: SPR Biacore, human Tim-3 Fc;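 further: antibodies captured on an anti-FLAG sensor surface, Tim-3-Fc flowed over as analyte at 25 °C in HBS-EP+ buffer, rates fit with a 1:1 Langmuir model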
outcome_measure: koff (s⁻¹)
Answers are plain numbers, in s⁻¹.

# annotated cases, reported koff shown
h22E11-VK2-28 × h22E11-VH1-69 (antibody, V domains shown, Humanized m22E11) VH: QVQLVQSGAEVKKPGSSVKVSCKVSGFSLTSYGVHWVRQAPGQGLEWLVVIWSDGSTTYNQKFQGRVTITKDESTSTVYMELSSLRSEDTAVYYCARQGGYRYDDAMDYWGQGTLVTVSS VL: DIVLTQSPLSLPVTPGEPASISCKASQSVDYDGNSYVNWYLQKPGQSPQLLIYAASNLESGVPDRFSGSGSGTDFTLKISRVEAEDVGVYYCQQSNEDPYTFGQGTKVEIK ... 0.000863
h22E11-5-IgG-LC × h22E11-VH3-23 (antibody, V domains shown, Humanized m22E11) VH: EVQLLESGGGLVQPGGSLRLSCAVSGFSLTSYGVHWVRQAPGKGLEWLVVIWSDGSTTYNDSVKGRFTISKDNSKNTVYLQMNSLRAEDTAVYYCARQGGYRYDDAMDYWGQGTLVTVSS VL: EIVLTQSPGTLSLSPGERATLSCKASQSVDYDGNSYVAWYQQKPGQAPRLLIYAASNLESGIPDRFSGSGSGTDFTLTISRLEPEDFAVYYCQQSNEDPYTFGQGTKVEIK ... 0.000895

Given the binder h22E11-VK4-1 × h22E11-5-IgG-HC (antibody, V domains shown, Humanized m22E11) VH: EVQLVESGGGLVQPGGSLRLSCAVSGFSLTSYGVHWVRQAPGKGLEWLVVIWSDGSTTYNSALKSRFTISKDNAKNSVYLQMNSLRAEDTAVYYCARQGGYRYDDAMDYWGQGTLVTVSS VL: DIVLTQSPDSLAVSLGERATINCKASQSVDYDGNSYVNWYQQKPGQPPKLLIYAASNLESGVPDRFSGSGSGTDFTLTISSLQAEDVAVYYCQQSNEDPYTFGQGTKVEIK , what is its reported koff? 0.000973
